# targetOrTestSystem: T1, PUF4 RNA-binding domain (Saccharomyces cerevisiae, UniProt P25339 537-888)
# T1 sequence: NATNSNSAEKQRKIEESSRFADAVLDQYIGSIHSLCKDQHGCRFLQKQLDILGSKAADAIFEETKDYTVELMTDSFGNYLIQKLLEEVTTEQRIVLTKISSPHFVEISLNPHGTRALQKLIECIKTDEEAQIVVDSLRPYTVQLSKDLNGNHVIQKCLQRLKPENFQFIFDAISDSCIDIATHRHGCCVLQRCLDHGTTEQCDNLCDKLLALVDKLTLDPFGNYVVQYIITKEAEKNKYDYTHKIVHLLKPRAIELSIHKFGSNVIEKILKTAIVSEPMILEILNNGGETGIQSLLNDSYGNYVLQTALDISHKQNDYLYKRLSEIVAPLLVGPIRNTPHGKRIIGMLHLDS
# procedureDetails: Mg; RNA-MaP; 20 mM Na-HEPES pH 7.4, 30 mM KOAc, 0.75 mM MgCl2, 0.1% Tween-20, 5% glycerol, 0.1 mg/mL BSA, 2 mM DTT; 25 C; 0.0125-409.6 nM protein
# experimentalParameters: tags: N-His6-TEV cleaved; C-SNAP kept, Cy3B-labelled; label: tethered on chip by stalled RNA polymerase
pKd: −log10 of the molar value.
A collection of binders and their measured pKd
reportedProperty: pKd

1. Ib_S4_P4E.1_K4.1_C4.1_H4.1_[T3C]_A4.1_F4.1_[A9T]_T4.1 (ssRNA) RNA: UUUGACAACUGAUCGUUCUUUCUUGCAUAUUUUUCUUUCUCGAUCAGUUGUCUUU; 6.00
2. UCUCUUACUAUAUAUUAAUUCUCUU (ssRNA) [Id_ii_S1_P4E.3_K4.2_C4.2_[C-2A]_[T-1C]_H4.2_A4.1_F4.1_T4.2_[G10A]]; 7.43
3. Ic_S4_P5E.1_K5.1_C5.1_H5.1_A5.1_[T5C]_F5.1_[T9A]_[A10C]_T5.1 (ssRNA) RNA: UUUGACAACUGAUCGUUCUUUCUUGUACUAUACUUCUUUCUCGAUCAGUUGUCUUU; 8.48
4. Ic_S4_P5E.1_K5.1_C5.1_H5.1_A5.1_[T5C]_[A7T]_F5.1_[T8C]_[T9A]_[A10T]_T5.1 (ssRNA) RNA: UUUGACAACUGAUCGUUCUUUCUUGUACUUCAUUUCUUUCUCGAUCAGUUGUCUUU; 6.99
5. Id_ii_S2_P3E.3_K3.2_C3.2_[C-2T]_H3.2_A3.1_F3.1_T3.2_[A10T] (ssRNA) RNA: UUUGAUUAAUAUGAUAUCGUUCUUUCUUUUAUAUAUAUUUUCUUUCUCGAUAUCAUAUUAAUCUUU; 7.10
6. ACAAACGAUAUAUAUAACACAAAC (ssRNA) [Id_ii_S3_P3E.3_K3.2_C3.2_[C-2G]_[T-1A]_H3.2_A3.1_F3.1_T3.2_[T9A]_[A10C]]; 6.01
7. UCUCUUUGUAUAUAUAUGUCUCUU (ssRNA) [Id_ii_S1_P3E.3_K3.2_C3.2_[C-2T]_[T-1G]_H3.2_A3.1_F3.1_T3.2_[A10G]]; 8.31
8. Id_ii_S2_P5E.2_K5.1_C5.2_[C-2T]_[T-1G]_H5.1_A5.1_F5.1_T5.2_[A12C] (ssRNA) RNA: UUUGAUUAAUAUGAUAUCGUUCUUUCUUGUGUAUUAUUAUCUUCUUUCUCGAUAUCAUAUUAAUCUUU; 8.74
9. Ic_S2_P4E.1_K4.1_C4.1_H4.1_A4.1_[T5A]_[A6T]_[T7C]_F4.1_[A9G]_T4.1 (ssRNA) RNA: UUUGAUUAAUAUGAUAUCGUUCUUUCUUGUAAUCUGUUCUUUCUCGAUAUCAUAUUAAUCUUU; 7.61
10. Ic_S2_P5E.1_K5.1_C5.1_H5.1_A5.1_[T6G]_[A7T]_F5.1_[T8G]_[T9C]_[A10C]_T5.1 (ssRNA) RNA: UUUGAUUAAUAUGAUAUCGUUCUUUCUUGUAUGUGCCUUCUUUCUCGAUAUCAUAUUAAUCUUU; 7.31
11. Ib_S4_P4E.1_K4.1_C4.1_H4.1_A4.1_F4.1_[T8A]_[A9G]_T4.1 (ssRNA) RNA: UUUGACAACUGAUCGUUCUUUCUUGUAUAUAGUUCUUUCUCGAUCAGUUGUCUUU; 8.00
12. UCUCUUUGUUUUUUUAUCUCUU (ssRNA) [Ib_S1_P5E.1_K5.1_C5.1_H5.1_[A4T]_A5.1_[A7T]_F5.1_T5.1]; 6.85
13. Ic_S2_P5E.1_K5.1_C5.1_H5.1_A5.1_[T5A]_[T6A]_[A7C]_F5.1_[T8G]_[T9C]_[A10C]_T5.1 (ssRNA) RNA: UUUGAUUAAUAUGAUAUCGUUCUUUCUUGUAAACGCCUUCUUUCUCGAUAUCAUAUUAAUCUUU; 6.21
14. Id_ii_S4_P4E.4_K4.3_C4.2_[C-2T]_[T-1A]_H4.3_A4.1_F4.1_T4.2_[G10T]_[T11A] (ssRNA) RNA: UUUGACAACUGAUCGUUCUUUCUUAACACUAUUAUAUUCUUUCUCGAUCAGUUGUCUUU; 6.15
15. ACAAACAGUAUUAUUAACAAAC (ssRNA) [Ia_S3_P5E.1_K5.1_C5.1_H5.1_[T1A]_A5.1_F5.1_T5.1]; 5.70
16. UCUCUUUAUGUAUAUUACCUCUCUU (ssRNA) [Id_ii_S1_P4E.2_K4.1_C4.2_[C-2T]_[T-1A]_H4.1_A4.1_F4.1_T4.2_[G10C]_[T11C]]; 9.07
17. UCUCUUCUUGUCCUCAUAUAUAUCUCUU (ssRNA) [Ie_S1_P3E.2_K3.1_C3.2_H3.1_[+3CCTC]_A3.1_F3.1_T3.2]; 6.10
18. UCUCUUUUUGUAUAUAAAUCUCUU (ssRNA) [Id_ii_S1_P3E.2_K3.1_C3.2_[C-2T]_H3.1_A3.1_F3.1_T3.2_[T9A]]; 7.98
19. Ib_S4_P4E.1_K4.1_C4.1_H4.1_A4.1_[A6T]_[T7A]_F4.1_T4.1 (ssRNA) RNA: UUUGACAACUGAUCGUUCUUUCUUGUAUUAUAUUCUUUCUCGAUCAGUUGUCUUU; 8.87
20. UCUCUUUGUAAAUAAUUCUCUU (ssRNA) [Ic_S1_P5E.1_K5.1_C5.1_H5.1_A5.1_[T5A]_[T6A]_[A7T]_F5.1_[T8A]_[T9A]_[A10T]_T5.1]; 7.52
21. UCUCUUUGUAUGGUUUUCUCUU (ssRNA) [Ic_S1_P5E.1_K5.1_C5.1_H5.1_A5.1_[T6G]_[A7G]_F5.1_[A10T]_T5.1]; 6.80
22. Ie_S4_P4E.1_K4.1_C4.1_H4.1_[+1CTC]_A4.1_F4.1_T4.1 (ssRNA) RNA: UUUGACAACUGAUCGUUCUUUCUUCUCGUAUAUUAUUCUUUCUCGAUCAGUUGUCUUU; 8.09
